Record form. Attribute: Colony S. aureus. Fill in for each entry.
test system: S. aureus; assay: Test 1: colony count after incubation in Lysogeny broth culture; format: cell-based; conditions: Table 1a; 10 mg in 5 mL culture, 2 hours at 37° C.; Blank 8.00E+08 (examples), 4.00E+08 (second Blank)
Respond numerically; units are cfu/ml and should not be typed.

Exam item: // lookup Colony S. aureus for `COc1ccc(P(=O)(O)c2ccc(OC)cc2)cc1`
Marked response: 6.00E+08

Exam item: // lookup Colony S. aureus for `CP(C)(=O)O`
Marked response: 6.00E+08

Exam item: Fill in: Colony S. aureus of `O=P(O)(c1ccccc1)c1ccccc1` is ___
Marked response: 8.00E+08

Exam item: // lookup Colony S. aureus for `O=[N+]([O-])c1cccc(P(=O)(O)c2cccc([N+](=O)[O-])c2)c1`
Marked response: 8.00E+08

Exam item: So what's the measured Colony S. aureus for this one? `O=[PH](O)c1ccccc1`
Marked response: 8.00E+08

The reported numbers originate from patent US10501487B2.
